The measured values listed here are drawn from the supplement of paper PMC11246515.

- protocol.details: total protein half-life in vivo (active degradation + dilution); higher = more stable protein
- condition.notes: E. coli NCM3722 delta-clpP delta-lon delta-hslV; growth: N-lim chemostat; doubling time 6 h
Catalogue of total protein half-life in vivo values
Note: unit h is implicit; provide only the numeric part.

entry.sequence	total protein half-life in vivo (h)
MKKNRAFLKWAGGKYPLLDDIKRHLPKGECLVEPFVGAGSVFLNTDFSRYILADINSDLISLYNIVKMRTDEYVQAARELFVPETNCAEVYYQFREEFNKSQDPFRRAVLFLYLNRYGYNGLCRYNLRGEFNVPFGRYKKPYFPEAELYHFAEKAQNAFFYCESYADSMARADDASVVYCDPPYAPLSATANFTAYHTNSFTLEQQAHLAEIAEGLVERHIPVLISNHDTMLTREWYQRAKLHVVKVRRSISSNGGTRKKVDELLALYKPGVVSPAKK [P0AEE8]	5.89

Kindly review the next sequence as well.
In plain terms, MEKEQLIEIANTIMPFGKYKGRRLIDLPEEYLLWFARKDEFPAGKLGELMQITLLIKTEGLTQLVQPLKRPL [P0AD40] has a documented total protein half-life in vivo of 6.16
